test: IUF_NPC2a_radial_glia_migration_120hr: Leibniz Research Institute for Environmental Medicine (IUF) 120-hour Neural Progenitor Cell Migration Assay for Radial Glia Migration (NPC2a) (AID 2284298)
Activity calls are given as the source filed them. Rule for the calls: active = hit-call score of the fitted dose curve at least 0.9, where 1 is the maximum; inactive = score below 0.9.
Labels: active, inactive

| Entry smiles | Category |
| --- | --- |
| CSC(=O)c1cccc2nnsc12 | inactive |
| O=C(O)c1ccccc1 | inactive |
| CC(C)(c1ccc(O)cc1)c1ccc(O)cc1 | inactive |
| Cc1nn(C)c(Oc2ccccc2)c1C=NOCc1ccc(C(=O)OC(C)(C)C)cc1 | active |

----------
assay: STM_H9_CystineISnorm_perc: Stemina devTOX quickPredict H9 human embryonic stem cell (hESC)-based Assay for Cystine (CYSS) Metabolite Biomarker, Normalized (AID 2283713)
Activity calls are given as the source filed them. How the source made its calls: active means hit-call score of the fitted dose curve at least 0.9, where 1 is the maximum; inactive means score below 0.9.
Possible outcomes: 1 for active, 0 for inactive

| Entry smiles | Category |
| --- | --- |
| O=C(c1ccc(O)cc1O)c1ccc(O)cc1O | 1 |
| CSC(=O)c1cccc2nnsc12 | 1 |
| CCCCCOC(=O)COc1cc(N2C(=O)C3=C(CCCC3)C2=O)c(F)cc1Cl | 0 |
| O=C(O)C1(C(=O)Nc2ccc(Cl)cc2Cl)CC1 | 0 |
| COC(=O)c1ccc(I)cc1S(=O)(=O)NC(=O)Nc1nc(C)nc(OC)n1 | 0 |
| COC(=O)c1ccccc1C(=O)O | 0 |
| S=C(S)NCCNC(=S)S.[Mn+2].[S-]C([S-])=NCCN=C([S-])[S-].[Zn+2] | 0 |
| Oc1ccc(C(c2ccc(O)cc2)C(Cl)(Cl)Cl)cc1 | 0 |

----------
read-out: Interleukin-8 (IL8), CXCL8 (gene 3576); assay: BSK_SAg_IL8: BioMAP Diversity Plus: SAg Assay for Interleukin-8 (IL8) Biomarker Activity (AID 2283094); conditions: primary human HUVEC with PBMC; actives raise or lower the signal
Active and inactive are the calls of the source. Rule for the calls: active = hit-call score of the fitted dose curve at least 0.9, where 1 is the maximum; inactive = score below 0.9.
Classes used: active, inactive

| Compound | Category |
| --- | --- |
| CCOC(=O)c1ccc(O)cc1 | inactive |
| COC(=O)c1c(Cl)nn(C)c1S(=O)(=O)NC(=O)Nc1nc(OC)cc(OC)n1 | inactive |
| COCCO | inactive |
| CCSC(=O)N(CC(C)C)CC(C)C | inactive |
| CC1(C)C(C=C(Cl)Cl)C1C(=O)OCc1cccc(Oc2ccccc2)c1 (stereo not drawn) | inactive |
| CCCN(CCC)C(=O)SCC | inactive |
| CCCCCOC(=O)COc1cc(N2C(=O)C3=C(CCCC3)C2=O)c(F)cc1Cl | inactive |
| CCCCCCC(C)OC(=O)COc1nc(F)c(Cl)c(N)c1Cl (stereo not drawn) | active |
| CC(=O)S[C@@H]1CC2=CC(=O)CC[C@]2(C)[C@H]2CC[C@@]3(C)[C@@H](CC[C@@]34CCC(=O)O4)[C@H]12 | active |
| OB(O)O | inactive |
| CCC(O)=C1C(=O)CC(C(=O)O)CC1=O (stereo not drawn) | inactive |
| CCCCOC(=O)C(C)Oc1ccc(Oc2ccc(C(F)(F)F)cn2)cc1 (stereo not drawn) | inactive |
| COc1nc(C)nc(NC(=O)NS(=O)(=O)c2ccccc2OCCCl)n1 | inactive |
| CCCOC(=O)NCCCN(C)C | inactive |
| COC(=O)c1cccc(C)c1S(=O)(=O)NC(=O)Nc1nc(OCC(F)(F)F)nc(N(C)C)n1 | inactive |
| CCCCC(CC)COC(=O)c1ccccc1C(=O)O (stereo not drawn) | inactive |
| CCC(C)OC(=O)N1CCCCC1CCO (stereo not drawn) | inactive |
| CCCCOC(=O)[C@@H](C)Oc1ccc(Oc2ccc(C(F)(F)F)cn2)cc1 | inactive |
| C#CCOC(=O)[C@@H](C)Oc1ccc(Oc2ncc(Cl)cc2F)cc1 | inactive |
| CCCCOCCOCCOCc1cc2c(cc1CCC)OCO2 | inactive |
| S=C(S)NCCNC(=S)S.[Mn+2].[S-]C([S-])=NCCN=C([S-])[S-].[Zn+2] | inactive |
| CCN(CC)C(=O)c1cccc(C)c1 | inactive |
| CCOC(=O)C(C)Oc1ccc(Oc2cnc3cc(Cl)ccc3n2)cc1 (stereo not drawn) | inactive |

----------
read-out: Cytochrome P450 3A7 (Homo sapiens) (UniProt P24462); assay: LTEA_HepaRG_CYP3A7: Life Technologies and Expression Analysis (LTEA) Assay for CYP3A7 using HepaRG (AID 2283492); settings: mRNA level, 48 h; actives raise or lower the signal
Sequence (P24462 whole entry, looked up): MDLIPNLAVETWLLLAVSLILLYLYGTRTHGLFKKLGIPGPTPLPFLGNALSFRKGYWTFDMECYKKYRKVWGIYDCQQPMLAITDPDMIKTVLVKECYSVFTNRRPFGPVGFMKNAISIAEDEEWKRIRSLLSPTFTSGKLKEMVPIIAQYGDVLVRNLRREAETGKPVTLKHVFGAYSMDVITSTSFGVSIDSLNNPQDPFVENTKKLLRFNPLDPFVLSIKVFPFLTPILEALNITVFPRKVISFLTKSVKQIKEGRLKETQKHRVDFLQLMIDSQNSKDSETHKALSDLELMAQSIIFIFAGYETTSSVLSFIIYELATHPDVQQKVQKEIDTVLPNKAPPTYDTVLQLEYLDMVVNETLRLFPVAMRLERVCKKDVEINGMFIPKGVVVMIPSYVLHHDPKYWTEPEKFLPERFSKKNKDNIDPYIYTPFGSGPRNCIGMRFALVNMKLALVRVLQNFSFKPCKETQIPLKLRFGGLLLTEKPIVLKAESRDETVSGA
The source made the active and inactive calls. The calls were made as follows: active = hit-call score of the fitted dose curve at least 0.9, where 1 is the maximum; inactive = score below 0.9.
Possible outcomes: Y for active, N for inactive

| Molecule | Category |
| --- | --- |
| C[C@]12C[C@H](O)[C@H]3[C@@H](CCC4=CC(=O)CC[C@@]43C)[C@@H]1CC[C@@H]2C(=O)CO | Y |
| c1ccc(Nc2ccccc2)cc1 | N |
| CCC(C)OC(=O)N1CCCCC1CCO (stereo unspecified) | N |
| CCCCC(CC)CN1C(=O)C2C3C=CC(C3)C2C1=O (stereo unspecified) | Y |
| CCNc1nc(N)nc(Cl)n1 | Y |
| C[C@]12CC[C@@H]3c4ccc(O)cc4C[C@@H](CCCCCCCCCS(=O)CCCC(F)(F)C(F)(F)F)[C@H]3[C@@H]1CC[C@@H]2O (stereo partly specified) | Y |

----------
assay: BSK_BE3C_SRB: Viability Assessment in the BioMAP Diversity Plus: BE3C Assay (AID 2283028); conditions: primary human bronchial epithelial cells;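 note: measured 24 h after chemical dosing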
Activity calls are given as the source filed them. The calls were made as follows: active = hit-call score of the fitted dose curve at least 0.9, where 1 is the maximum; inactive = score below 0.9.
Possible outcomes: TRUE (active), FALSE (inactive)

| Compound | Category |
| --- | --- |
| CC(C)(C)[C@@H](O)[C@@H](Cc1ccc(Cl)cc1)n1cncn1 | FALSE |
| C[C@]12CC[C@@H]3c4ccc(O)cc4C[C@@H](CCCCCCCCCS(=O)CCCC(F)(F)C(F)(F)F)[C@H]3[C@@H]1CC[C@@H]2O (some centres undefined) | FALSE |
| C#C[C@]1(O)CC[C@H]2[C@@H]3CCC4=CC(=O)CC[C@@H]4[C@H]3CC[C@@]21CC | FALSE |
| CC(C)CCCCCCc1ccc(O)cc1 | TRUE |
| Oc1ccc(C(c2ccc(O)cc2)C(Cl)(Cl)Cl)cc1 | TRUE |
| C=CCOC(Cn1ccnc1)c1ccc(Cl)cc1Cl (centres undefined) | FALSE |
| O=C(c1ccc(O)cc1O)c1ccc(O)cc1O | FALSE |
| O=C(O)c1ccccc1 | FALSE |
| CCCOC(=O)NCCCN(C)C | FALSE |

----------
Read-out: xenobiotic metabolism (CYP1A1), CYP1A1 (gene 1543)
Test: CLD_CYP1A1_48hr: CellzDirect (CLD) Gene Expression Assay for xenobiotic metabolism (CYP1A1) at 48 hours (AID 2283705)
Protocol: CLD_48hr is a cell-based, multiplexed-readout assay that uses hepatocyte, a human liver primary cell, with measurements taken at 48 hours after chemical dosing in a 96-well plate.CLD_CYP1A1_48hr is one of 16 assay component(s) measured or calculated from the CLD_48hr assay. […] Furthermore, this assay endpoint can be referred to as a primary readout. […]
Results filed as inconclusive are left out. Active and inactive are the calls of the source. The calls were made as follows: active = hit-call score of the fitted dose curve at least 0.9, where 1 is the maximum; inconclusive = response in the unintended direction; inactive = score below 0.9.

| Compound | AC50 |
| --- | --- |
| CN(C)C(=O)Nc1ccc(Cl)c(Cl)c1 | 12.4 µM (active) |
| CC(C)(C)[C@@H](O)[C@@H](Cc1ccc(Cl)cc1)n1cncn1 | 3.97 µM (active) |
| COC(=O)c1c(Cl)nn(C)c1S(=O)(=O)NC(=O)Nc1nc(OC)cc(OC)n1 | inactive |
| CCCCC(CC)CN1C(=O)C2C3C=CC(C3)C2C1=O (centres undefined) | 33.7 µM (active) |
| O=C(Nc1ccc([N+](=O)[O-])cc1Cl)c1cc(Cl)ccc1O | 3.55 µM (active) |
| CCOC(=O)C(C)Oc1ccc(Oc2nc3ccc(Cl)cc3o2)cc1 (centres undefined) | inactive |
| CCNc1nc(N)nc(Cl)n1 | inactive |
| OB(O)O | inactive |
| N#CSCSc1nc2ccccc2s1 | 7.52 µM (active) |
| CCOC(=O)[C@H](C)Oc1ccc(Oc2nc3ccc(Cl)cc3o2)cc1 | inactive |
| CCCN(CCC)c1c([N+](=O)[O-])cc(C(F)(F)F)c(N)c1[N+](=O)[O-] | 5.19 µM (active) |
| CCCCOCCOCCOCc1cc2c(cc1CCC)OCO2 | 12 µM (active) |
| CCOC(=O)COc1cc(-n2ncc(C(F)(F)F)c(C)c2=O)c(F)cc1Cl | inactive |
| CCCOC(=O)NCCCN(C)C | inactive |
| S=C([S-])NCCNC(=S)[S-].[Mn+2] | 3.58 µM (active) |
| CCCCCOC(=O)COc1cc(N2C(=O)C3=C(CCCC3)C2=O)c(F)cc1Cl | inactive |
| CSC(=O)c1cccc2nnsc12 | inactive |
| COC(=O)CSc1cc(N=c2sc(=O)n3n2CCCC3)c(F)cc1Cl | inactive |
| Cc1nn(C)c(Oc2ccccc2)c1C=NOCc1ccc(C(=O)OC(C)(C)C)cc1 | inactive |
| CCN(Cc1c(F)cccc1Cl)c1c([N+](=O)[O-])cc(C(F)(F)F)cc1[N+](=O)[O-] | 1.22 µM (active) |
| CCOC(=O)NCCOc1ccc(Oc2ccccc2)cc1 | inactive |
| CCCCOC(=O)[C@@H](C)Oc1ccc(Oc2ccc(C(F)(F)F)cn2)cc1 | inactive |
| COC(=O)c1ccc(I)cc1S(=O)(=O)NC(=O)Nc1nc(C)nc(OC)n1 | 20 µM (active) |
| S=C(S)NCCNC(=S)S.[Mn+2].[S-]C([S-])=NCCN=C([S-])[S-].[Zn+2] | 0.252 µM (active) |
| COC(=O)c1ccc(CNS(C)(=O)=O)cc1S(=O)(=O)NC(=O)Nc1nc(OC)cc(OC)n1 | inactive |
| CCCCC(CC)COC(=O)c1ccccc1C(=O)O (centres undefined) | inactive |
| CCC(C)OC(=O)N1CCCCC1CCO (centres undefined) | inactive |
| CC(C)(c1ccc(O)cc1)c1ccc(O)cc1 | inactive |
| COCCO | inactive |
